system: A549; test: NCI tumour cell line growth inhibition, 48 h
Activity calls are given as the source filed them. Cut-off read from the data, not from the text of the source: active = GI50 up to about 1.1 µM and inactive = higher.
The entries below are paired with their reported GI50.

Request the reported GI50 associated with O=C(CNc1cccc(Cl)c1)Nn1c(-c2ccccc2)nc2ccccc2c1=O
19.7 µM (inactive)

Continuing:
Request the reported GI50 associated with CC1CN=C(Nc2ccccc2)S1 (stereo unspecified)
> 100 µM (inactive)

Request the reported GI50 associated with COc1cccc2nc3ccccc3nc12
54.2 µM (inactive)

---

test system: OVCAR-4; assay: NCI tumour cell line growth inhibition, 48 h
Active and inactive are the calls of the source. Cut-off read from the data, not from the text of the source: active = GI50 up to about 1.1 µM and inactive = higher.
Just give me one of these, please: YES (active), NO (inactive)

Please state the recorded outcome for this compound: Cc1cc(OCc2nn(CN3CCN(C)CC3)c(=S)n2/N=C/c2ccc(-c3ccc(Cl)cc3Cl)o2)ccc1Cl
NO

Please state the recorded outcome for this compound: C[NH+]1[C@@H](Cc2ccccc2)C(=O)O[B-]1(F)c1ccccc1 (stereo not given in full)
NO

Please state the recorded outcome for this compound: COc1ccc(C(SCCO)(c2ccc(OC)cc2)c2ccc(OC)cc2)cc1
NO

Please state the recorded outcome for this compound: c1ccc2c(c1)N=C(c1ccc3ccccc3c1)CC(c1cccc3ccccc13)S2 (stereo not given)
NO

Please state the recorded outcome for this compound: O=c1c2cc(Br)ccc2nc(CCl)n1-c1ccc(O)c([N+](=O)[O-])c1
NO

Please state the recorded outcome for this compound: COc1ccc(O)c(/C=N/CCC/N=C/c2cc(OC)ccc2O)c1
NO

Please state the recorded outcome for this compound: CC1=CC(=O)c2ccc(C)cc2C1=O
NO

Please state the recorded outcome for this compound: CC(=O)OCCOCNC(=S)N/N=C/c1ccc2ccccc2n1
NO

Please state the recorded outcome for this compound: COc1ccc2nc3cccc([N+](=O)[O-])c3c(NCCO)c2c1
YES

Continuing:
Please state the recorded outcome for this compound: O=C(CN1c2ccccc2Sc2ccccc21)n1cnc2ccccc21
NO

---

test system: RPMI-8226; test: NCI tumour cell line growth inhibition, 48 h
Activity calls are given as the source filed them. No stated cut-off is given here; in the data, active = GI50 up to about 1.1 µM and inactive = higher.
Just give me one of these, please: 1 = active, 0 = inactive

Past entries and their recorded results:
Please state the recorded outcome for this compound: CC(C)CCC[C@@H](C)[C@H]1CC[C@H]2[C@@H]3CC=C4CC(OCCCCN(O)CCCSC5OC(CO)C(O)C(O)C5O)CC[C@]4(C)[C@H]3CC[C@]12C (stereo partly drawn)
0

Please state the recorded outcome for this compound: CO[C@@H]1C[C@H](OC(N)=O)[C@@H]2C=C[C@@H]3/C=C(C)/C=C/[C@@H](C)[C@H](/C(C)=C/[C@@H](C)NC(C)=O)OC(=O)/C=C/C=C(C)\C=C\[C@]3(C)[C@@H]2C1 [SUPERSTOLIDE B]
1

Please state the recorded outcome for this compound: CC(O)/C=C/C(CCC(C)CO)C(C)C (stereo not drawn)
0

Continuing:
Please state the recorded outcome for this compound: CC(=O)N1C(=O)c2cc3ccccc3cc21
0

Please state the recorded outcome for this compound: CC1=C(CCC(C)CO)O[C@H]2C[C@H]3[C@@H]4CC[C@H]5C[C@@H](O)CC[C@]5(C)[C@H]4CC(=O)[C@]3(C)[C@@H]12 (stereo partly drawn)
0

Please state the recorded outcome for this compound: Cl[Si]1(Cl)Oc2ccccc2O[Si](Cl)(Cl)Oc2ccccc2O1
0

Please state the recorded outcome for this compound: Cc1[nH]c2ccccc2c1CC/C(=N\Nc1ccccc1)c1ccccc1
0

Please state the recorded outcome for this compound: C=CCNC(=S)N1c2ccccc2NC(=O)CC1C (stereo not drawn)
0

---

tested on: RPMI-8226; assay: NCI tumour cell line growth inhibition, 48 h
The source made the active and inactive calls. Cut-off read from the data, not from the text of the source: active = GI50 up to about 1.1 µM and inactive = higher.
measureName: GI50

Guide cases for GI50, answers given:
Request the reported GI50 associated with CCC(=O)/C=C/c1ccccc1
54.3 µM (inactive)

Request the reported GI50 associated with O=C1c2ccccc2CC1C1(O)C(=O)Nc2c(Cl)cc(Cl)cc21 (stereo unspecified)
20.8 µM (inactive)

Request the reported GI50 associated with Cc1ccc(Oc2ccccc2N)cc1
33.7 µM (inactive)

Request the reported GI50 associated with O=C1OC[C@H]2[C@@H]1[C@H]1O[C@@H]2C2=C(CCC2)C1=O
> 100 µM (inactive)

Request the reported GI50 associated with O=S(=O)(NC1OCCCC1I)c1ccccc1 (stereo unspecified)
43.2 µM (inactive)

Continuing:
Request the reported GI50 associated with C[n+]1ccn2c3nc4ccccc4nc3c([O-])c(C#N)c21
> 100 µM (inactive)

Request the reported GI50 associated with CCCC(C)c1c(Cl)nc(Cl)nc1Cl (stereo unspecified)
5.53 µM (inactive)

Request the reported GI50 associated with C=C(COC(=O)C(C)C)[C@H]1Oc2ccc(C(C)=O)cc2[C@@H]1OC(=O)C(C)C
76.4 µM (inactive)

Request the reported GI50 associated with COc1ccc(O)c(/C=N/CCC/N=C/c2cc(OC)ccc2O)c1
11.7 µM (inactive)

Request the reported GI50 associated with CC(C)C(O)(C(=O)OCN1C(=O)C2C3C=CC(C2C1=O)C1C2C(=O)N(COC(=O)C(O)(C(C)C)C(C)O)C(=O)C2C31)C(C)O (stereo unspecified)
> 100 µM (inactive)

Request the reported GI50 associated with Cc1cccc(C)c1NC(=O)CCC(=O)NC(N)=S
> 100 µM (inactive)

---

test system: SN12C; assay: NCI tumour cell line growth inhibition, 48 h
Calls of active or inactive are those of the source. Rule as the data show it: active = GI50 up to about 1.1 µM and inactive = higher.
The entries below are paired with their reported GI50.

Guide cases for GI50, answers given:
Request the reported GI50 associated with COP(=O)(Cc1ccccc1)Cc1ccccc1
> 100 µM (inactive)

Request the reported GI50 associated with CC1CN=C(N(C)C(=O)Nc2ccc(Cl)cc2)S1 (configuration not stated)
15.2 µM (inactive)

Request the reported GI50 associated with Clc1ccc(SCCSCCCCCCCCCCSCCSc2ccc(Cl)cc2)cc1
> 100 µM (inactive)

Request the reported GI50 associated with Cc1ccc(Oc2ccccc2N)cc1
31.7 µM (inactive)

Request the reported GI50 associated with CC1=C(Br)C(=O)c2c(O)ccc(O)c2C1=O
1.38 µM (inactive)

Request the reported GI50 associated with Cc1ccc(CCCCCOc2ccc(C3=NCCO3)cc2)s1
> 100 µM (inactive)

Continuing:
Request the reported GI50 associated with CCN(CCO)CC1COc2ccccc2O1 (configuration not stated)
> 100 µM (inactive)

---

tested on: OVCAR-8; test: NCI tumour cell line growth inhibition, 48 h
Active and inactive are the calls of the source. Cut-off read from the data, not from the text of the source: active = GI50 up to about 1.1 µM and inactive = higher.
Just give me one of these, please: y for active, n for inactive

Past entries and their recorded results:
Please state the recorded outcome for this molecule: CC1SC(=O)SC1C (stereo not drawn)
n

Please state the recorded outcome for this molecule: COc1ccc(Nc2nc3ccc(C(F)(F)F)cc3nc2C(=O)O)cc1OC
n

Please state the recorded outcome for this molecule: CC1OC(O)CC(N(C)C)C1O.CC1OC(O)CCC1O.CCC1CC(O)c2c(O)c3c(c(O)c2C1O)C(=O)c1cccc(O)c1C3=O (stereo not drawn)
y

Please state the recorded outcome for this molecule: CC(C)(C)OC(=O)NC(Cc1ccc([N+](=O)[O-])cc1)C(=O)NC(CCCCNC(=O)OCc1ccccc1)C(=O)ON1C(=O)CCC1=O (stereo not drawn)
n

Please state the recorded outcome for this molecule: COc1cc2c(c3nc4ccccc4nc13)-c1ccc(SC)c(=O)cc1[C@@H](NC(C)=O)CC2
y

Now, please, on to the next molecule.
Please state the recorded outcome for this molecule: COc1cc2c(cc1OC)C(Cc1ccccc1CCCl)=NCC2
n

---

tested on: UO-31; assay: NCI tumour cell line growth inhibition, 48 h
The source made the active and inactive calls. Cut-off read from the data, not from the text of the source: active = GI50 up to about 1.1 µM and inactive = higher.
Just give me one of these, please: YES (active), NO (inactive)

Past entries and their recorded results:
Please state the recorded outcome for this compound: c1ccc2c(c1)N=C(c1ccc3ccccc3c1)CC(c1cccc3ccccc13)S2 (stereo unspecified)
NO

Please state the recorded outcome for this compound: COC(=O)/C([Se]c1c(C)cc(C)cc1C)=C(/[Se]c1c(C)cc(C)cc1C)C(=O)OC
NO

Please state the recorded outcome for this compound: COc1cc2c(cc1OC)C(Cl)C(c1ccc(Cl)cc1)=C2Cl (stereo unspecified)
NO

Please state the recorded outcome for this compound: O=C1CSC(Cc2nc3ccccc3[nH]2)=N1
NO

Continuing:
Please state the recorded outcome for this compound: CC1=C(Br)C(=O)c2c(O)ccc(O)c2C1=O
YES

Please state the recorded outcome for this compound: CN(C)c1ccc(/C=C/C(=O)O)cc1
NO

Please state the recorded outcome for this compound: CC(=O)c1ccc(NC(=O)C(=O)C(C#N)CC(C)(C)C=O)cc1 (stereo unspecified)
NO

Please state the recorded outcome for this compound: COc1cc2c(c(OC)c1OC)-c1ccc(OC)c(=O)cc1[C@@H](N(C)C=O)CC2
YES

Please state the recorded outcome for this compound: CCOC(=O)/C(=C\c1cn(C(C)=O)c2ccccc12)P(C)(=O)OCC (stereo unspecified)
NO

Please state the recorded outcome for this compound: CCC(=O)/C=C/c1ccccc1
NO

Please state the recorded outcome for this compound: CCOC(=O)NNC(=O)NCc1cccc(CNC(=O)NNC(=O)OCC)c1
NO
